List of cell count values.
# test-protocol: inhibitors of TNFa-induced NFkB p65 translocation, primary screen, imaging, HUVEC, MLSMR starter and 10KST1 sets (AID 438);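 note: compound added about 3h40 before a 20 min TNFalpha stimulation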
# assay-setup: HUVEC TNFa-induced p65 nuclear translocation; measured here: nuclei count (cytotoxicity indicator), at 2.08 µM
observable: cell count

• CC(=O)Nc1nnc(S(N)(=O)=O)s1 = 660
• COc1ccc2[nH]c3c(N4CCN(Cc5ccc6c(c5)OCO6)CC4)ncnc3c2c1 = 428
• CCc1cn([C@H]2C[C@H](O)[C@@H](CO)O2)c(=O)[nH]c1=O = 644
• CC1(C)CC(N(Cc2ccco2)C(=O)Cc2ccccc2)CCO1 (configuration not stated) = 535
• CC1=NN(c2ccccc2)C(=O)C1 = 619
• CN1CCN(c2nc(C(N)=O)cc(-c3ccccc3)n2)CC1 = 400
• O=C(N(c1ccccc1)c1ccccc1)n1ccnc1 = 543
• C[C@]12CC[C@@H]3c4ccc(OC(=O)c5ccccc5)cc4CC[C@H]3[C@@H]1CC[C@@H]2O = 623
• CC(Cc1ccc(O)c(O)c1)C(C)Cc1ccc(O)c(O)c1 (configuration not stated) = 641
• Nc1ccc(S(=O)(=O)NC(=O)c2ccccc2)cc1 = 544
• Cc1nc(N2CCN(Cc3ccccc3)CC2)c(C#N)c2c1COC(C)(C)C2 = 686
• Nc1ccc2c(c1)N1CCN=C1S2 = 646
• C/C(=N\O)C1(C)N(O)C(C)(C)C(c2ccco2)=[N+]1[O-] (configuration not stated) = 428
• O/N=C/c1ccc(OCC(O)COc2ccc(/C=N/O)cc2)cc1 = 678
• CC(C)CCNC(=O)[C@H](CC(C)C)NC(=O)[C@H]1O[C@@H]1C(=O)O = 625
• CCCCc1ccc(NC(=O)CSC2=C(C#N)C(c3ccco3)C3=C(CCCC3=O)N2)cc1 (configuration not stated) = 384
• COc1cc(-c2nn3c(C4CCCCC4)nnc3s2)cc(OC)c1OC = 535
• CC(C)OC(=O)C(C#N)c1nc2ccccc2nc1N1CCCC1 (configuration not stated) = 485
• COc1ccc(-c2nn3c(COc4ccccc4)nnc3s2)cc1OC = 597
• CC(C)COc1nc2ccccc2nc1C(C#N)C(=O)NC1CCCCC1 (configuration not stated) = 342
• CC[N+](C)(C)c1cccc(O)c1 = 610
• CCCOc1ccc(C2NC(=O)NC2=O)cc1 (configuration not stated) = 614
• C[C@@H]1C[C@H]2[C@@H]3C[C@H](F)C4=CC(=O)C=C[C@]4(C)[C@@]3(F)[C@@H](O)C[C@]2(C)[C@@]1(O)C(=O)COC(=O)C(C)(C)C = 563
• CN(C)c1ccc(C2C3C(=O)N(c4ccc(C(=O)O)cc4)C(=O)C3ON2c2ccccc2)cc1 (configuration not stated) = 491
• Cc1ccsc1C1NC(=O)c2c(sc3c2CCCC3)N1 (configuration not stated) = 584
• CCOC(=O)c1[nH]c2cc3c(cc2c1NC(=O)CN1CCC2(CC1)OCCO2)OCO3 = 466
• COCCNC(=O)c1c(N)n(CCC2=CCCCC2)c2nc3ccccc3nc12 = 661
• CCOc1cccc(C2C(C#N)=C(N)Oc3cc(C)oc(=O)c32)c1OCC (configuration not stated) = 362
• Cc1cc(O)c(C(C)C)cc1N=C1CSC(=O)N1 = 428
• CC1CCCCN1C(=O)C12CCC(C)(/C(=N/O)C1)C2(C)C (configuration not stated) = 333
• CC(=O)C1(C)OC(N)=C(C#N)C(c2ccccc2)C1(C#N)C#N (configuration not stated) = 511
• O=C1OC(Nc2ccc(Br)cc2F)c2ccccc21 (configuration not stated) = 426
• CC(=O)Nc1cccc(NC(=O)CSc2nc(C)c(C)c(C)c2C#N)c1 = 546
• Cc1ccc(C2/C(=C(/O)c3ccc(OC(C)C)cc3)C(=O)C(=O)N2CCN2CCOCC2)cc1 (configuration not stated) = 526
• [N-]=[N+]=CC(=O)c1ccnc(C(=O)C=[N+]=[N-])c1 = 544
• CCCCN(CCCC)c1nc2ccccc2nc1C(C#N)C(=O)NCCCOC (configuration not stated) = 382
• COc1ccc2cnn(-c3ccccc3C)c(=O)c2c1OC = 613
